// provenance: ChEMBL document CHEMBL1201862

Test system: RPMI-8226
Assay Info: NCI tumour cell line growth inhibition, 48 h
Activity calls are given as the source filed them. No stated cut-off is given here; in the data, active = GI50 up to about 1.1 µM and inactive = higher.
Endpoint: GI50

INSERT INTO measurements (compound, endpoint, result) VALUES
  ('CN(C)C(=O)Oc1ccc(C(=S)Nc2ccccc2)cc1', 'GI50', '64.1 µM (inactive)'),
  ('COc1cccc(N2C(=O)CSC2c2cc(OC)c(OC)c(OC)c2)c1 (stereo not given)', 'GI50', '29 µM (inactive)'),
  ('COc1cc2c(c3c1c(=O)c1ccccc1n3C)C=C([N+](=O)[O-])C(C)(C)O2', 'GI50', '> 31.6 µM (inactive)'),
  ('O=C(O[C@@H](/C=C/c1ccccc1)P1(=O)N(Cc2ccccc2)[C@H]2CCCC[C@@H]2N1Cc1ccccc1)c1ccccc1', 'GI50', '2.29 µM (inactive)');

// query Sample CC(NC(=O)OC(C)(C)C)C(=O)NC(Cc1ccccc1)C(=O)NCC(=O)ON=C1CCCC1 (stereo not given) — what was its GI50?
// result 97.5 µM (inactive)

###

Test system: SF-539
Assay Info: NCI tumour cell line growth inhibition, 48 h
Activity calls are given as the source filed them. Cut-off read from the data, not from the text of the source: active = GI50 up to about 1.1 µM and inactive = higher.
Endpoint: GI50

These solved cases illustrate the format of a correct answer.
INSERT INTO measurements (compound, target, endpoint, result) VALUES
  ('CCOC(=O)C(=[N+]=[N-])C(=O)CN1C(=O)c2ccccc2C1=O', 'SF-539', 'GI50', '> 100 µM (inactive)'),
  ('COC(=O)Nc1nc2ccccc2[nH]1', 'SF-539', 'GI50', '5.2 µM (inactive)'),
  ('c1ccc(CSc2nc(N3CCCCC3)c3cn[nH]c3n2)cc1', 'SF-539', 'GI50', '18.4 µM (inactive)'),
  ('COC(=O)C1CC2(CCC1=O)Cc1ccccc1C2=O (stereo unspecified)', 'SF-539', 'GI50', '> 100 µM (inactive)'),
  ('CCCC(=O)Nc1ncnc2c1ncn2C1OC2COP(=O)(O)OC2C1OC(=O)CCC (stereo unspecified)', 'SF-539', 'GI50', '382 µM (inactive)');

Consider the additional compound presented here.
// query Sample Cn1c(=O)n2n(c1=O)C(S(=O)(=O)c1ccccc1)C2 (stereo unspecified) — what was its GI50?
// result > 100 µM (inactive)

###

Test system: RXF 393
Assay Info: NCI tumour cell line growth inhibition, 48 h
Activity calls are given as the source filed them. Cut-off read from the data, not from the text of the source: active = GI50 up to about 1.1 µM and inactive = higher.
Can you answer with just one of these options? 1.0 for active, 0.0 for inactive

INSERT INTO assay_data (compound, category_label) VALUES
  ('O=C1C(=Cc2cccs2)C(=O)N(CCc2ccccc2)S(=O)(=O)N1CCc1ccccc1', 0.0),
  ('CO[C@@](c1ccccc1)(c1nc(C#N)c(N)o1)C(F)(F)F', 0.0);

// query Status in this test for CC1(C)CNCC(C)(OCc2ccccc2)C(=O)NC(C)(C)CNCC(C)(OCc2ccccc2)C(=O)N1 (stereo not given) ?
// result 0.0

// query Repeat for the following compound: CCC(=O)Nc1cccc(NC(=O)c2c(Cl)c(Cl)c(Cl)c(Cl)c2-c2nc3ccccc3[nH]2)c1
// result 0.0

// query Repeat for the following compound: S=c1c2ccccc2c(=S)n2n1CC=CC2
// result 0.0

// query Repeat for the following compound: Cc1ccc([N+](=O)[O-])cc1NC(=O)C(=O)C1CCC2=C(Sc3ccccc3N2)C1=O (stereo not given)
// result 0.0

// query Repeat for the following compound: CN(C)CCCNCc1cccc2ccccc12
// result 0.0

// query Repeat for the following compound: COc1ccc(-c2oc3c(CC(=O)O)cccc3c(=O)c2OC)cc1
// result 0.0

// query Repeat for the following compound: Cc1ccc2cccc(-c3cccc4ccccc34)c2n1
// result 0.0

// query Repeat for the following compound: N#CC(c1cc(Cl)ncn1)c1nc2ccccc2s1 (stereo not given)
// result 0.0

// query Repeat for the following compound: O=c1[nH]/c(=C/c2ccc(OCc3ccccc3)cn2)c(=O)[nH]/c1=C/c1ccc(Cl)cc1
// result 0.0

###

Tested on: SNB-75
Assay Info: NCI tumour cell line growth inhibition, 48 h
Active and inactive are the calls of the source. Rule as the data show it: active = GI50 up to about 1.1 µM and inactive = higher.
Can you answer with just one of these options? active, inactive

Example entries and their recorded answers appear below.
INSERT INTO measurements (compound, category_label) VALUES
  ('CC1(C)[C@@H]2C[C@H]1c1cnc(-c3ccccn3)cc1[C@H]2C(O)[C@@H]1c2cc(-c3ccccn3)ncc2[C@H]2C[C@@H]1C2(C)C (some centres undefined)', 'active'),
  ('Cc1cc(C)nc(NS(=O)(=O)c2ccc(NC(=O)c3cccc4cc5ccccc5nc34)cc2)n1', 'inactive'),
  ('CC(O)c1nc(C#N)c(N)o1 (centres undefined)', 'inactive'),
  ('CC(=O)OC[C@@H]1[C@H]2CC(=O)O[C@H]2C[C@H]1OC(C)=O', 'inactive'),
  ('CC[C@@]1(OC(=O)C(N)CCCCN)C(=O)OCc2c1cc1n(c2=O)Cc2cc3ccccc3nc2-1 (some centres undefined)', 'active');

// query Status in this test for NS(=O)(=O)c1ccc(/N=N/c2cnc(O)c(O)c2)cc1 ?
// result inactive

// query Repeat for the following compound: O=C(N/C=C/C=C/Sc1ccccc1)OCc1ccccc1
// result inactive

// query Repeat for the following compound: O=C(O)C1CCCN1Cc1c[nH]c2ccccc12 (centres undefined)
// result inactive

// query Repeat for the following compound: COc1ccc(/N=N/c2c(-c3ccccc3)nn(C(=O)CC(=O)Nc3cccc(Cl)c3)c2-c2ccccc2)cc1
// result inactive

###

Tested on: HOP-92
Assay Info: NCI tumour cell line growth inhibition, 48 h
Activity calls are given as the source filed them. Rule as the data show it: active = GI50 up to about 1.1 µM and inactive = higher.
Endpoint: GI50

INSERT INTO measurements (molecule, result) VALUES
  ('O=c1c(Cc2c(O)oc3cc(O)ccc3c2=O)c(O)oc2cc(O)ccc12', '> 100 µM (inactive)'),
  ('NC(=O)C(c1ccccc1)N1OC2C(=O)N(Cc3ccccc3)C(=O)C2C1c1cccc(Oc2ccc(Cl)cc2)c1 (stereo unspecified)', '33 µM (inactive)'),
  ('NC(=O)COc1ccc(Br)cc1Br', '> 100 µM (inactive)');

// query Sample O=S(=O)(N/N=C\c1c2ccccc2[n+]([O-])c2ccccc12)c1ccc(Cl)cc1 — what was its GI50?
// result > 100 µM (inactive)

// query Repeat for the following molecule: CCN(CC)CC1c2ccccc2C(CNc2ccccc2)N1C (stereo unspecified)
// result 30.1 µM (inactive)

###

Tested on: SN12C
Assay Info: NCI tumour cell line growth inhibition, 48 h
The source made the active and inactive calls. No stated cut-off is given here; in the data, active = GI50 up to about 1.1 µM and inactive = higher.
Can you answer with just one of these options? active, inactive

// query Status in this test for O=C1C(Cl)=C(N2CCN(CCOCCO)CC2)C(=O)c2ncccc21 ?
// result inactive

// query Repeat for the following molecule: COc1cccc(C2c3cc4c(cc3OC(NNc3ccccc3)C2C)OCO4)c1OC (stereo unspecified)
// result inactive

// query Repeat for the following molecule: OCCNCN(CNCCO)c1nc(N(CNCCO)CNCCO)nc(N(CNCCO)CNCCO)n1
// result active

// query Repeat for the following molecule: O=c1[nH]c2c(C(F)(F)F)c(Cl)c(-c3ccccc3)nc2o1
// result inactive

// query Repeat for the following molecule: COc1cccc(C(=O)Nc2c3ccccc3nc3ccccc23)c1OC
// result inactive

// query Repeat for the following molecule: O=C(CC1(O)C(=O)Nc2c(Cl)cc(Cl)cc21)c1ccc(F)cc1 (stereo unspecified)
// result inactive

###

Test system: MDA-MB-435
Assay Info: NCI tumour cell line growth inhibition, 48 h
Active and inactive are the calls of the source. No stated cut-off is given here; in the data, active = GI50 up to about 1.1 µM and inactive = higher.
Can you answer with just one of these options? active, inactive

Example entries and their recorded answers appear below.
INSERT INTO measurements (molecule, category_label) VALUES
  ('COC[C@H](Cc1ccccc1)/N=C/c1ccccc1', 'inactive'),
  ('O=C(Cc1ccccc1)NCCCN(CCCCN(CCCNC(=O)Cc1ccccc1)C(=O)OCc1ccccc1)C(=O)OCc1ccccc1', 'inactive'),
  ('CCN(CC)/[N+]([O-])=N/OCOC(C)=O', 'inactive'),
  ('COc1ccc(\N=C/C=C/C(=C/COC(C)=O)OC(C)=O)cc1', 'inactive');

For the next question, use this compound.
// query Status in this test for Nc1ccn([C@@H]2C=C(CO)[C@@H](O)[C@H]2O)c(=O)n1 ?
// result active

###

System: KM12
Assay Info: NCI tumour cell line growth inhibition, 48 h
Activity calls are given as the source filed them. Cut-off read from the data, not from the text of the source: active = GI50 up to about 1.1 µM and inactive = higher. Square brackets hold non-standard residues; d marks the D form. Peptide text beside a SMILES is read from it. * marks the point of attachment. ξ: configuration not given here. Propanoyl(3-(4-MeO-Ph)) = COc1ccc(CCC(=O)*)cc1; Thr(3ξ) = CC(O)[C@H](N)C(=O)O; dNMeL = CN[C@H](CC(C)C)C(=O)O; ξLac = CC(O)C(=O)O
Can you answer with just one of these options? y (active), n (inactive)

Example entries and their recorded answers appear below.
INSERT INTO measurements (compound, target, category_label) VALUES
  ('N#C/C(=C\NC(=S)c1ccncc1)c1nc2ccccc2s1', 'KM12', 'n'),
  ('Cc1cccc(/N=C/c2ccc(N(CCC#N)S(=O)(=O)c3ccccc3)cc2C)c1', 'KM12', 'n'),
  ('O=[N+]([O-])c1ccc(C[S+]([O-])Cc2ccccc2)cc1 (centres undefined)', 'KM12', 'n'),
  ('COc1cc(CC2C(=O)OCC2[C@@H](OC(C)=O)c2ccc3c(c2)OCO3)c(Br)c(OC)c1OC (some centres undefined)', 'KM12', 'n'),
  ('Cc1cc(-c2ccc[nH]2)on1', 'KM12', 'n'),
  ('CCn1c(=O)c2nc(SC)sc2n(-c2ccc(C)cc2)c1=O', 'KM12', 'n');

// query Status in this test for C[C@]12CC[C@H](OCCC#N)CC1=CC[C@@H]1C2CC[C@]2(C)/C(=N/OCCC#N)CCC12 (some centres undefined) ?
// result n

// query Repeat for the following compound: Cc1c(-c2ccccc2)c(C#N)c2nnn(C3CCCCC3)c(=O)n12
// result n

// query Repeat for the following compound: COC(=O)[C@@H](NC(=O)[C@@H](CC(C)C)N(C)C(=O)[C@@H]1CCCN1C(=O)C(C)O)C(C)OC(=O)CCc1ccc(OC)cc1 (some centres undefined) (H-[ξLac]P[dNMeL][Thr(3ξ)](Propanoyl(3-(4-MeO-Ph)))-OMe)
// result n

// query Repeat for the following compound: CC1=NN(C(=O)c2ccc(Cl)cc2)C(=O)/C1=C/c1cccc(O)c1
// result n

// query Repeat for the following compound: COc1ccc(/N=C2\C(=O)C3=C(OC(C)(C)CC3)c3ccccc32)cc1
// result y

// query Repeat for the following compound: CCOC(=O)Nc1[nH]cc(-c2ccccc2)c1C#N
// result n

// query Repeat for the following compound: C/C(=N\[N+](C)(C)C)C(c1ccccc1)C1(c2ccccc2)C(c2ccccc2)=C1c1ccccc1 (centres undefined)
// result n

// query Repeat for the following compound: COc1cccc(N2C(=O)CSC2c2cc(OC)c(OC)c(OC)c2)c1 (centres undefined)
// result n

// query Repeat for the following compound: CCOC(=O)/C=C(\C)c1ccc(OC)cc1
// result n

// query Repeat for the following compound: COc1cccc(C(=O)Nc2c3ccccc3nc3ccccc23)c1OC
// result n

// query Repeat for the following compound: O=C(O)/C=C\C(=O)Nc1ccc(S(=O)(=O)c2ccc(NC(=O)/C=C\C(=O)O)cc2)cc1
// result n

// query Repeat for the following compound: N/C(=C\c1ccc(/C=C(\NC(=O)c2ccccc2)c2nc3c([nH]2)C(=O)c2ccccc2C3=O)cc1)c1nc2c([nH]1)C(=O)c1ccccc1C2=O
// result n

// query Repeat for the following compound: CC(C)(C)n1c(=O)n2n(c1=O)C1c3cccc4cccc(c34)C2C2c3cccc4cccc(c34)C1n1c(=O)n(C(C)(C)C)c(=O)n12
// result n
